Molecular target: T1, human Myl12b-His (human, UniProt O14950 1-172)
T1 construct: Made in E. coli; GST tag cleaved with PreScission Protease; DTT-treated monomer
T1 sequence: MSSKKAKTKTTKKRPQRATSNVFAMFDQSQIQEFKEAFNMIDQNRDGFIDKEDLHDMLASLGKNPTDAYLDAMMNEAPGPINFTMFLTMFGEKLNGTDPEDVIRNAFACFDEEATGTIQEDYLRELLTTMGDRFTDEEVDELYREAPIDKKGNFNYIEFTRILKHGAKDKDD
Assay: ELISA, human Myl12b-His coated, anti-human IgG-HRP
valueType: binding result

Humanized antibody No. 110 (antibody, human IgG2, kappa, V domains shown, human IgG2 (V234A, G237A, C-terminal Lys deleted) / kappa; Expi293F, Protein A purified; also called HA1-6/L1-5) VH: QVQLVQSGAEVKKPGSSVKVSCKASGYTFTDYEMHWVRQAPGQGLEWMGAIDPETGGTAYAQKFQGRVTITADKSTSTAYMELRSLRSEDTAVYYCADYDYDGFAYWGQGTLVTVSS VL: DIVMTQSPLSLSITPGEQASISCRSSQSLVHSNGNTYLHWYLQKPGQSPQLLISKVSNRFSGVPDRFSGSGSGTDFTLKISRVEAEDVGVYFCSQNTHVPPLTFGGGTKVEIKR : binds
Humanized antibody No. 115 (antibody, human IgG2, kappa, V domains shown, human IgG2 (V234A, G237A, C-terminal Lys deleted) / kappa; Expi293F, Protein A purified; also called HK1-A/L1-5) VH: QVQLVQSGAEVKKPGSSVKVSCKASGYTFSDYEMHWVRQAPGQGLEWIGAIDPETGGTAYNQKFKGRATITADKSTSTAYMELRSLRSEDTAVYYCTDYDYDGFAYWGQGTLVTVSS VL: DIVMTQSPLSLSITPGEQASISCRSSQSLVHSNGNTYLHWYLQKPGQSPQLLISKVSNRFSGVPDRFSGSGSGTDFTLKISRVEAEDVGVYFCSQNTHVPPLTFGGGTKVEIKR : binds
Humanized antibody No. 123 (antibody, human IgG2, kappa, V domains shown, human IgG2 (V234A, G237A, C-terminal Lys deleted) / kappa; Expi293F, Protein A purified; also called HK1-5/L4-2) VH: QVQLVQSGAEVKKPGSSVKVSCKASGGTFSDYEMHWVRQAPGQGLEWMGAIDPETGGTAYNQKFKGRVTITADKSTSTAYMELSSLRSEDTAVYYCADYDYDGFAYWGQGTLVTVSS VL: DIVMTQTPLSSPVTLGQPASISCRSSQSLVHSNGNTYLHWYQQRPGQPPRLLISKVSNRFSGVPDRFSGSGAGTDFTLKISRVEAEDVGVYFCSQNTHVPPLTFGGGTKVEIKR : binds
